Below, each of the binders is paired with its reported Neut IC50 (ug/ml) subtype A value.
target_or_test_system: RSV F protein of subtype A strain A2, on virus (respiratory syncytial virus subtype A …, UniProt P03420 26-574)
method_notes: cell-based or functional assay
Entry rule: numbers only, all in µg/mL.

| binder | Neut IC50 (ug/ml) subtype A, µg/mL |
| --- | --- |
| ADI-15628 (antibody, V domains shown, IgG) VH: QVQLVQSGGGVVQPGRSLRLSCAASGFTFSDFSMHWVRQAPGKGLEWVALISNDGSNKYYSDSLKGSFIISRDNSKNTLYLQLNSLGAEDTALYYCARDAVPHYDYVWGNFDYWGPGTLVTVSS VL: QPVLTQPASVSASPGQSITISCTGTSSDVGGYNYVSWYQQHPGKAPKLIVYEVSNRPSGVSNRFSGSKSGNTASLTISGLQADDEADYYCSSYTSFTPVVFGGGTKVTVL | 0.014 |

Attention now turns to another entry.
Query :: Fill blank: measured Neut IC50 (ug/ml) subtype A of the binder ADI-15582 (antibody, V domains shown, IgG) VH: QVQLVQSGGEVKKPGASVKVSCKASGYTFISYGITWVRQAPGQGPEWMGWISPYNGDTNYAQKLQGRVTMTTDTSTTTAYMELRSLRSDDTAIYYCARRYDILTGGGWFDSWGQGTLVTVSS VL: DIVMTQSPSSLSASVGDRVTINCRASQSIISYLNWYQQKPGKAPELLIYAASSLQSGVPSRFSGSGSGTEFTLTISSLQPEDFATYYCQQSYSTPLSFGPGTKVEIK is ____.
Result :: 2.22
